Target: human recombinant ENPP1 (Homo sapiens)
Sequence (P22413 whole entry): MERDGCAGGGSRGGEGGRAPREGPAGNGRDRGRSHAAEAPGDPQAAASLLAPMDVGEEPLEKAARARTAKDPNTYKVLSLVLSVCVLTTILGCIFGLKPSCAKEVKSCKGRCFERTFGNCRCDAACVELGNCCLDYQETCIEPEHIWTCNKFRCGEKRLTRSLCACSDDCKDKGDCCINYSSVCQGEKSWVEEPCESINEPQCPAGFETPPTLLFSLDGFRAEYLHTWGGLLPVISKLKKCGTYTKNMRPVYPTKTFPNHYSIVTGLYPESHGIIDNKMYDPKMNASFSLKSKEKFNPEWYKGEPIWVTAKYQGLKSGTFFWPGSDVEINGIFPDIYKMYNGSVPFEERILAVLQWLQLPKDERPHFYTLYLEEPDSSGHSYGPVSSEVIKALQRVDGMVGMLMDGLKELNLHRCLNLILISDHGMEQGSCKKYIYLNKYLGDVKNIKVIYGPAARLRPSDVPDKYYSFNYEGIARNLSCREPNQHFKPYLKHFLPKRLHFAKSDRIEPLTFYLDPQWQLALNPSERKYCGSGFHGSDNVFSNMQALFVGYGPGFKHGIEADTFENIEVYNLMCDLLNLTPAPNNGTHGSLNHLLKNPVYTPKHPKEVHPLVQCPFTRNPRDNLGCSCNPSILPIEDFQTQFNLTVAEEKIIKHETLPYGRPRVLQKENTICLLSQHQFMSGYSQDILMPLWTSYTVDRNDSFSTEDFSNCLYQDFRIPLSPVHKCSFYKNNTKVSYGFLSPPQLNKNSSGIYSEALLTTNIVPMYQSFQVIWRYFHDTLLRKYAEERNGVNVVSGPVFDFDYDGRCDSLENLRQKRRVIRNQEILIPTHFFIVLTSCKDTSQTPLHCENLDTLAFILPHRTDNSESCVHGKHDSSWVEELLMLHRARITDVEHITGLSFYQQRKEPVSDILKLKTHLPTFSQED
Assay: ENPP1 inhibition with 2′,3′-cGAMP substrate (AMP-Glo assay)
Type: biochemical
Settings: 20 μM 2′3′cGAMP; Ki from IC50 by Cheng-Prusoff, Km 15 μM
metric: Ki (nM)

Here is how some compounds turned out for Ki.
>  <record-smiles>
COc1cc2ncnc(N3CCC(CCN)CC3)c2cc1OC

>  <tested-system>
human recombinant ENPP1 (Homo sapiens)

>  <recorded-measurement>
46.7

$$$$
>  <record-smiles>
COc1cc2ncn(-c3ccc(CNS(N)(=O)=O)cc3)c2cc1OC

>  <tested-system>
human recombinant ENPP1 (Homo sapiens)

>  <recorded-measurement>
27.1

$$$$

P: COc1cc2nccc(Oc3ccc(NS(=O)(=O)c4ccccc4)cc3)c2cc1OC
Q: COc1cc2ncnc(-c3ccc4c(c3)CN(S(N)(=O)=O)CC4)c2cc1OC
R: COc1cc2nccc(Nc3ccc(NS(=O)(=O)c4ccccc4)cc3)c2cc1OC
S: CCN(C)S(=O)(=O)NCCC1CCN(c2ncnc3cc(OC)c(OC)cc23)CC1
hey, can you rank those compounds up there by Ki? biggest number first please Quick reminder: the answer is the labels in the order asked.
S, P, R, Q
